# System: OVCAR-8 ovarian
# run.description: NCI-60 one-dose screen, 48 h
# assay.conditions: 10 µM unless noted
# Experimental: Growth inhibition of the OVCAR-8 human tumor cell line is measured as a screen for anti-cancer activity. Cells are grown in 96 well plates and exposed to the test compound for 48 hours. Compounds are tested at a single concentration, which is 10^-5 M for most compounds. The reported endpoint is percent growth (GI% or GIPRCNT), where numbers from 0 - 100% represent growth inhibition, and numbers from -100% - 0 represent cell death. For example, a value of 40 represents 60% growth inhibition. […]
This is part of a sample that, as a whole, favours compounds with a hit. Of some 83,000 tested, about 20% had one in any assay. Active and inactive are the calls of the source. Rule for the calls: active = growth percent below 10; inactive = the rest.
Output constraint: value belongs to active, inactive

>  <compound>
Cc1cc(Cc2ccccc2)c(O)c(Cc2ccccc2)c1

>  <class>
inactive

$$$$
>  <compound>
CCOC(=O)c1cc(Cl)c(O)c(Cl)c1

>  <class>
inactive

$$$$
>  <compound>
C=CCC(OC(C)=O)c1ccc(OC)c(OC)c1 (stereo not given)

>  <class>
inactive

$$$$

## Task How did this test come out for OCC1CCC(O)C(CO)N1 (stereo not given) ?
## Result inactive

## Task Kindly provide the recorded test outcome for the following compound: C[C@H](CCC[C@H](C)OS(=O)(=O)c1ccccc1)OS(=O)(=O)c1ccccc1
## Result inactive

## Task # outcome recorded in this test, key = C=COC(=O)C(C)(C)C
## Result inactive

## Task Give the logged outcome of this assay for the following compound: Cc1ccc(NC(=S)N2CCOCC2)cc1C
## Result inactive

## Task State the result this test recorded for CC(=O)N(CCCCCCN(C(C)=O)C(C)=O)C(C)=O .
## Result inactive

## Task Assay outcome for N#CCCN1C(=O)CCC1C(=O)O (stereo not given) : what was it?
## Result inactive

## Task Which result was noted for this compound in the test: N#Cc1ccc(OC(=O)Nc2cc(Cl)cc(Cl)c2)cc1
## Result active

## Task Called result for Cc1ccc(NC(=O)c2ccccc2Cl)cc1
## Result inactive

## Task How did this test come out for CC(=O)CSc1ncnc2nc[nH]c12 ?
## Result inactive

## Task Hi, sorry to bother you, what did the test record for O=C(c1ccccc1)c1ccc(-c2ccc(O)cc2)cc1 ?
## Result inactive

## Task Which outcome was assigned to COC(CCCl)c1ccc(Cl)cc1 (stereo not given) in this test?
## Result inactive

## Task Hey, what did the test say about CN1C(=O)NC(c2ccc(Cl)cc2)(c2ccc(Cl)cc2)C1=O ?
## Result inactive

## Task For this compound, state the assay outcome: CC12CCC3c4ccc(O)cc4CCC3C1CCC2=O (stereo not given)
## Result inactive

## Task # outcome recorded in this test, key = C=CCN1CCCC1=O
## Result inactive

## Task Dear colleague, could you share the recorded outcome for C=CCS(C)(=O)=O when you have a moment?
## Result inactive

## Task State the result this test recorded for CCNc1ncnc2[nH]ncc12 .
## Result inactive

## Task Hey, what did the test say about O=C(Nc1c(Cl)cc(Cl)cc1Cl)ON=C1CCCCC1 ?
## Result inactive

## Task In this assay, the call recorded for COc1ccc(C(=O)C(=O)c2ccccc2)cc1 was what?
## Result inactive

## Task Which outcome did this test record for the compound CC(=O)NC(O)C(Cl)Cl (stereo not given) ?
## Result inactive

## Task Returns: the outcome recorded for C=CC1=NC(C)(C)CC(C)O1 (stereo not given) in this assay.
## Result inactive

## Task Hello, I am checking results. What call was entered for CC(=O)/C(C)=N\OC(=O)Nc1ccccc1 ?
## Result inactive

## Task Record lookup: outcome of this test for O=C(CCl)Oc1ccc([N+](=O)[O-])cc1 ?
## Result inactive

## Task Would you mind telling me which call this test gave CS(=O)(=O)c1ccc(/C=C\C(=O)O)cc1 ?
## Result inactive

## Task Dear all, I need the recorded test outcome for CNc1ccccc1C(=O)N/N=C/C=C/c1ccccc1 , thank you.
## Result active

## Task Given Cc1ccc2nc(-c3ccc(N=Cc4ccccc4O)cc3)sc2c1 , state the outcome it received in this test.
## Result inactive

## Task Which result was noted for this compound in the test: Cc1[nH]n(-c2ccccc2)c(=O)c1C=NC(=S)C(N)=S
## Result inactive
